The values you see were collected from patent US7235577B1.

target: human IKCa1 channel (Homo sapiens, UniProt O15554); assay: cell-based; conditions: read-out: Kd for block of IKCa1; hIKCa1 in COS-7 cells; reduction of slope conductance at −80 mV; 1 μM free Ca++ in pipette
pKd: −log10 of the molar value.
Label Not satisfied if pKd falls below 6; label Satisfied in every other case.

Please review the entries below; each comes with its answer.
[[record]]
cpd_smiles = "COc1ccc(C(C#N)(c2ccc(OC)cc2)c2ccc(OC)cc2)cc1"
system_tested = "human IKCa1 channel (Homo sapiens, UniProt O15554)"
class_label = "Not satisfied"

[[record]]
cpd_smiles = "NC(c1ccccc1)(c1ccccc1)c1ccccc1C(F)(F)F"
system_tested = "human IKCa1 channel (Homo sapiens, UniProt O15554)"
class_label = "Not satisfied"


Request: Would you say `COc1ccc(C(C#N)(c2ccccc2)c2ccc(OC)cc2)cc1` shows pKd at minimum 6?
Response: Not satisfied

Request: Determine whether measured pKd meets or exceeds 6 for `CCOC(=O)C(C(=O)OCC)C(c1ccccc1)(c1ccccc1)c1ccccc1`
Response: Satisfied

----------
molecular target: CYP3A4 (Homo sapiens); experiment: in vitro; settings: human
Sequence (P08684 whole entry): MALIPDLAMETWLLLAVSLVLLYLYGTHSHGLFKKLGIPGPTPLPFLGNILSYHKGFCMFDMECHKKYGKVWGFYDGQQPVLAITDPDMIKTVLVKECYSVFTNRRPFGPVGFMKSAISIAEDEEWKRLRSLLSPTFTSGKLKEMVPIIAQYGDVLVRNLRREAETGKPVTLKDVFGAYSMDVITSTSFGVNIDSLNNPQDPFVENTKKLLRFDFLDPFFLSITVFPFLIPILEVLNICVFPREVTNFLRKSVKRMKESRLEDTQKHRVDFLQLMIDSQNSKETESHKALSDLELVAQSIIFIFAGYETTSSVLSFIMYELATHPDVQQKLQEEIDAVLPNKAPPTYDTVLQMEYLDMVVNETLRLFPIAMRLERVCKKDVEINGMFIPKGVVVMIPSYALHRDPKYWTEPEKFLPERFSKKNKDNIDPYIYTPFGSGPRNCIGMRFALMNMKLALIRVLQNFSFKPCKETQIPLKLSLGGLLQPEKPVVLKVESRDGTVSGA
Quantity kind: inhibition at 30 min, 0.1 μM
Write the quantity with the unit trailing the number.

For record Clc1ccccc1C(c1ccccc1)(c1ccccc1)n1ccnc1 [Clotrimazole, reference compound] the listed inhibition at 30 min, 0.1 μM is 99%

----------
Below, each of the compounds is paired with its reported pKd value.
Molecular target: UniProt O15554
Assay: cell-based
Protocol: COS-7 cells, maintained in Dulbecco's modified Eagle's medium (DMEM) containing 10% heat-inactivated fetal calf serum, 4 mM L-glutamine and 1 mM Na^+ pyruvate, were transiently transfected with hlKCa1. Electrophysiological experiments were carried out in the whole-cell configuration of the patch-clamp technique using an EPC-9 amplifier (HEKA Elektronik, Lambrecht Germany) interfaced to a computer running acquisition and analysis software (Pulse and Pulsfit; HEKA Elektronik). […]
Just so you know, pKd here is -log10 of the concentration in molar units; reply with that number alone.

// solved cases for pKd follow
[[record]]
compound = "Cc1cc(C)n(C(c2ccccc2)(c2ccccc2)c2ccccc2Cl)n1"
observed_measurement = 4.92

[[record]]
compound = "Clc1ccccc1C(NCCNC(c1ccccc1)(c1ccccc1)c1ccccc1Cl)(c1ccccc1)c1ccccc1"
observed_measurement = 4.52

[[record]]
compound = "Clc1ccc(C(c2ccccc2)(c2ccccc2)n2cccn2)cc1"
observed_measurement = 7.05

[[record]]
compound = "FC(F)(F)c1ccccc1C(c1ccccc1)(c1ccccc1)n1cccn1"
observed_measurement = 5.30

[[record]]
compound = "Clc1ccccc1C(Nc1ncccn1)(c1ccccc1)c1ccccc1"
observed_measurement = 6.05

[[record]]
compound = "Cc1csc(NC(c2ccccc2)(c2ccccc2)c2ccccc2Cl)n1"
observed_measurement = 5.10


// field: pKd; key: OC(c1ccccc1)(c1ccc(F)cc1)c1cccs1 (centres unmarked) ; value = 6.10

Record OC(c1ccccc1)(c1cccs1)c1ccccc1Cl (centres unmarked) , field pKd: 6.12

Entry under test: `N#CC(c1ccccc1)(c1ccccc1)c1ccccc1F` . Its pKd was 7.22

pKd for `Clc1ccccc1C(Nc1nccs1)(c1ccccc1)c1ccccc1` is 4.82

----------
Molecular target: human IKCa1 channel (Homo sapiens)
Assay: cell-based
Conditions: hIKCa1 in COS-7 cells; reduction of slope conductance at −80 mV; 1 μM free Ca++ in pipette
Experimental: COS-7 cells, maintained in Dulbecco's modified Eagle's medium (DMEM) containing 10% heat-inactivated fetal calf serum, 4 mM L-glutamine and 1 mM Na^+ pyruvate, were transiently transfected with hlKCa1. Electrophysiological experiments were carried out in the whole-cell configuration of the patch-clamp technique using an EPC-9 amplifier (HEKA Elektronik, Lambrecht Germany) interfaced to a computer running acquisition and analysis software (Pulse and Pulsfit; HEKA Elektronik). […]
Quantity kind: Kd for block of IKCa1

Record excerpt, results attached:
[[record]]
cpd_smiles = "c1ccc(C(NCc2ccc(CNC(c3ccccc3)(c3ccccc3)c3ccccc3)cc2)(c2ccccc2)c2ccccc2)cc1"
system_tested = "human IKCa1 channel (Homo sapiens)"
observed_measurement = "No effect at 1 μM"

[[record]]
cpd_smiles = "O=C1c2ccccc2C(=O)N1C(c1ccccc1)(c1ccccc1)c1ccccc1Cl"
system_tested = "human IKCa1 channel (Homo sapiens)"
observed_measurement = "No effect at 10 μM"

[[record]]
cpd_smiles = "COc1ccc(C(c2ccc(OC)cc2)(c2ccc(OC)cc2)n2cccn2)cc1"
system_tested = "human IKCa1 channel (Homo sapiens)"
observed_measurement = "No effect at 1 μM"

[[record]]
cpd_smiles = "c1ccc(C(NCCN(CCNC(c2ccccc2)(c2ccccc2)c2ccccc2)CCNC(c2ccccc2)(c2ccccc2)c2ccccc2)(c2ccccc2)c2ccccc2)cc1"
system_tested = "human IKCa1 channel (Homo sapiens)"
observed_measurement = "No effect at 1 μM"

[[record]]
cpd_smiles = "OC(c1ccccc1)(c1cccc(Cl)c1)c1cccc(Cl)c1"
system_tested = "human IKCa1 channel (Homo sapiens)"
observed_measurement = "No effect at 1 μM"


Entry `Clc1ccccc1C(c1ccccc1)(c1ccccc1)n1cnc2ccccc21` ; Kd for block of IKCa1 = No effect at 1 μM

Short answer for `C[n+]1ccc(C(O)(c2ccccc2)c2ccccc2)cc1` : Kd for block of IKCa1 was No effect at 10 μM

Entry `OC(c1ccccc1)(c1ccc(Cl)cc1)c1ccc(Cl)cc1` ; Kd for block of IKCa1 = No effect at 1 μM

----------
The entries below come with measured pKd values attached.
target: human IKCa1 channel (Homo sapiens, UniProt O15554); experiment: cell-based
Please express pKd as -log10 of the molar concentration.

[[record]]
molecule = "OC(c1ccccc1)(c1ccccc1)c1ccc(Cl)cc1 [Compound T1, (4-Chlorophenyl)diphenyl methanol]"
quantity_kind = "pKd"
observed_measurement = 6.26

[[record]]
molecule = "OC(c1ccccc1)(c1ccccc1)c1ccc(F)cc1 [Compound T12, (4-Fluorophenyl)diphenyl methanol]"
quantity_kind = "pKd"
observed_measurement = 6.15

[[record]]
molecule = "NC(=O)NC(c1ccccc1)(c1ccccc1)c1ccc(Cl)cc1 [Compound T29, N-[(4-Chlorophenyl)diphenylmethyl] urea]"
quantity_kind = "pKd"
observed_measurement = 4.82

[[record]]
molecule = "Clc1ccccc1C(Nc1ccccn1)(c1ccccc1)c1ccccc1 [Compound T69]"
quantity_kind = "pKd"
observed_measurement = 4.55

[[record]]
molecule = "OC(c1ccccc1)(c1ccccc1)c1ccccc1F [Compound T36, (2-Fluorophenyl)diphenyl methanol]"
quantity_kind = "pKd"
observed_measurement = 6.15


From here, focus on the item given below.
pKd reading for c1ccc(C(c2ccccc2)(c2cccs2)n2cccn2)cc1 [Compound T38] : 5.96

----------
Below is a list of entries, each paired with its recorded pKd value.
target: human IKCa1 channel (Homo sapiens); assay: cell-based
The value called pKd is obtained by taking minus log10 of the concentration in mol/L.

Past entries and their recorded results:
[[record]]
cpd_smiles = "FC(F)(F)c1ccc(C(c2ccccc2)(c2ccccc2)n2cccn2)cc1"
system_tested = "human IKCa1 channel (Homo sapiens)"
observed_measurement = 5.82

[[record]]
cpd_smiles = "c1ccc(C(c2ccccc2)(c2cccs2)n2ccnc2)cc1"
system_tested = "human IKCa1 channel (Homo sapiens)"
observed_measurement = 6.00

[[record]]
cpd_smiles = "OC(c1ccccc1)(c1ccccc1)c1ccc(C(F)(F)F)cc1"
system_tested = "human IKCa1 channel (Homo sapiens)"
observed_measurement = 6.09


Recorded pKd (compound `c1ccc(C(c2ccccc2)(c2ccccc2)n2cccn2)cc1` ): 5.60

For `FC(F)(F)c1ccc(C(Nc2nccs2)(c2ccccc2)c2ccccc2)cc1` the compound record lists pKd as 4.46

----------
biological target: rKv4.2 (Rattus norvegicus, UniProt Q63881); experiment: Selectivity patch clamp, LTK cells expressing rKv4.2
Sequence (Q63881 whole entry): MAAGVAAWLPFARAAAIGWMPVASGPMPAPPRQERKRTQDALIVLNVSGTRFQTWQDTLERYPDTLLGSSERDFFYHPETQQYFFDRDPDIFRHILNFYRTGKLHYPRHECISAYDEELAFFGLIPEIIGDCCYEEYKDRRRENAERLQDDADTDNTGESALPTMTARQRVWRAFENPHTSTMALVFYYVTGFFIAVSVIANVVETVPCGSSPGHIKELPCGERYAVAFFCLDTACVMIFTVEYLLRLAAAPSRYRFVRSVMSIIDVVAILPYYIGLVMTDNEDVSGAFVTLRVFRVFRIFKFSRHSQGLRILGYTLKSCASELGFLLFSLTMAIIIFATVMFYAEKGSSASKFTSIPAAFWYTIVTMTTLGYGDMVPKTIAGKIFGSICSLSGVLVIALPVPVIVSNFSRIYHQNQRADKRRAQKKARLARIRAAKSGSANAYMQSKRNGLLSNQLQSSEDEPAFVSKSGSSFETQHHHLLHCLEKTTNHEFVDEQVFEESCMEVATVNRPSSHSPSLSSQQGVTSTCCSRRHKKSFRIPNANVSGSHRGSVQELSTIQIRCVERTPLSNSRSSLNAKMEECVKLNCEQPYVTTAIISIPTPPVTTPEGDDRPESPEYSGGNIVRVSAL
Quantity kind: pKd
Units for pKd: none; it is -log10 of a concentration expressed in mol/L.

// `Clc1ccccc1C(c1ccccc1)(c1ccccc1)n1cccn1` : pKd value = 5.22

----------
molecular target: BK (hSloα) (Homo sapiens, UniProt Q12791); construct: expressed in transfected cells; host or cells: HEK-293; assay: Selectivity patch clamp, HEK-293 cells expressing hSloα (BKCa); format: cell-based
Sequence (Q12791 whole entry): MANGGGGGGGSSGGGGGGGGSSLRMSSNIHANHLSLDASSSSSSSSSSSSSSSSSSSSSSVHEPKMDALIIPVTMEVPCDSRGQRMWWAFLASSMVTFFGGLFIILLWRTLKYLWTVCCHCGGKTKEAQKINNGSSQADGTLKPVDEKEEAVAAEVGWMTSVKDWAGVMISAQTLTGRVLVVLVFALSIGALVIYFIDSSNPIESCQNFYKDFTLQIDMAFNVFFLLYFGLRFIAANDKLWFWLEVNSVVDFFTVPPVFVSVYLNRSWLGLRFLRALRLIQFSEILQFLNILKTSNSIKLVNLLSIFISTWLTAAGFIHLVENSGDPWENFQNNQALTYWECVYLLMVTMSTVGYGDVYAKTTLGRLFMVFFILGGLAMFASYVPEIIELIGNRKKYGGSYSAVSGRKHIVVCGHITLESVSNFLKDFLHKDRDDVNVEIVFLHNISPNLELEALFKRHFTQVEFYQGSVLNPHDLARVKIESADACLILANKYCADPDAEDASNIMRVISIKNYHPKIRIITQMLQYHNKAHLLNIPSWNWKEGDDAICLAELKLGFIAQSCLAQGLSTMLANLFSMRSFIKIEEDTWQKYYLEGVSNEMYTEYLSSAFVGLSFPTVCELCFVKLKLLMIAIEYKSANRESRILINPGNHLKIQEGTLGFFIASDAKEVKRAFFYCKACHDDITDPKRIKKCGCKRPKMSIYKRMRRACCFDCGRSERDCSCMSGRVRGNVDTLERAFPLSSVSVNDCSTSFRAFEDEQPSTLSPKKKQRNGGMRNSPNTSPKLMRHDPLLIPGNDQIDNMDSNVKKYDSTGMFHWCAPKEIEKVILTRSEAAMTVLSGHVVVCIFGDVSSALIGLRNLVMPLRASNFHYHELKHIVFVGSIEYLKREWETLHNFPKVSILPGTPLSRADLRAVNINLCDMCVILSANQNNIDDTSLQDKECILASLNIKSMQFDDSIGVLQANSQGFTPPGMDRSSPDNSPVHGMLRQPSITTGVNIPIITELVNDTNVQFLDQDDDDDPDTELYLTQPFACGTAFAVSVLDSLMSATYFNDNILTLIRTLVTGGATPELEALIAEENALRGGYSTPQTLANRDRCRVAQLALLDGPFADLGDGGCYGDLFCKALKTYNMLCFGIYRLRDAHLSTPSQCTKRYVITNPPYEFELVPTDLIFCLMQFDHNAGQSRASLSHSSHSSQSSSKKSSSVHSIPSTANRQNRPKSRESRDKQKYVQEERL
Quantity kind: pKd
# reply with the number alone; pKd is -log10 of concentration in mol/L

Record `Clc1ccccc1C(c1ccccc1)(c1ccccc1)n1cccn1` , field pKd: 4.60

----------
molecular target: UniProt:P08684; assay: in vitro; conditions: human
inhibition at 30 min, 10 μM by entry:
Hi! Could you send only the number? It should be in %, unit omitted.

[[record]]
cpd_smiles = "OC(c1ccccc1)(c1ccccc1)c1ccccc1Cl"
quantity_kind = "inhibition at 30 min, 10 μM"
uom = "%"
observed_measurement = -30.5


Lab note: `CC(=O)NC(c1ccccc1)(c1ccccc1)c1ccccc1Cl` gave inhibition at 30 min, 10 μM of -54

The value of inhibition at 30 min, 10 μM measured for the compound `N#CC(c1ccccc1)(c1ccccc1)c1ccccc1F` turned out to be 9

The reported value for `N#CC(c1ccccc1)(c1ccccc1)c1ccccc1Cl` in terms of inhibition at 30 min, 10 μM is 10

Reported inhibition at 30 min, 10 μM for `Clc1ccccc1C(Nc1nccs1)(c1ccccc1)c1ccccc1` was 86.5
